- target_under_test: Fibroblast growth factor 2 (Homo sapiens) (UniProt P09038)
- Sequence (P09038 whole entry, looked up): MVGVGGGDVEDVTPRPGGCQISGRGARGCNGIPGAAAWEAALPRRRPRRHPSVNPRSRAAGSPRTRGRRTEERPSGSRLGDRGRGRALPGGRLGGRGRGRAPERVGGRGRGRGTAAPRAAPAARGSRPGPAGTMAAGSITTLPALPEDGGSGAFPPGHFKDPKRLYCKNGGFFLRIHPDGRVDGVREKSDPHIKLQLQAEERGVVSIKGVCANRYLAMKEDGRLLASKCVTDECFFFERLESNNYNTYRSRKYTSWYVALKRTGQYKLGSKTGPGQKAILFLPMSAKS
- assay_notes: FGF2 binders on small-molecule microarrays, primary screen, biochemical, small-molecule microarray, 635/667 nm fluorescence (AID 1133)
- setup_conditions: small-molecule microarray binding, FGF2, fluorescence 635/667; higher = more signal
Label True for high-side composite z-score (at or above 0.1) and False for low-side composite z-score (below it).

Use the examples below as a reference point.
• C[C@@H](c1ccccc1)N1C(=O)[C@H]2[C@H]3[C@H](O)C=CC(=O)[C@@H]3CC[C@H]2C1=O = True
• CO[C@@H]1COC(=O)CC=C[C@@H](C)[C@@H]2C=C[C@@H](O)[C@@H](COC(=O)CC=C[C@H]1C)O2 = True
• COCCCNC(=O)[C@@]1(C)c2ccccc2C(=O)N(Cc2ccc(OC(F)(F)F)cc2)[C@H]1c1ccc(CO)cc1 = False
• COc1ccc([Si](C)(C)[C@H]2[C@H](CCO)O[C@@]3(C(=O)N(Cc4cccc(NC(=O)[C@H](C)O)c4)c4ccccc43)[C@@H]2C)cc1 = True
• CC(CCN1CCc2nc(-c3ccccc3)c(-c3ccccc3)cc2C1)=NOC(C)CN1CCCCc2nc(C)c(C)cc21 (stereo not drawn) = True

Task: Hi team, for CCCC[C@@H]1C[C@H]1[C@@H](NS(=O)(=O)c1cccc2cccnc12)c1ccc(-c2ccccc2)cc1 , is the recorded composite z-score at or above 0.1?
Output: False

Task: And then CCCCc1nc2c(c3c1C[C@H](C)OC3)CN(CCC(C)C)CC2 , what is it?
Output: True

Task: And then CC(C)NC(=O)[C@@]1(c2ccc([N+](=O)[O-])cc2)CC(=O)N(CC23CC4CC(CC(C4)C2)C3)[C@@H]1c1ccc(CO)cc1I , what is it?
Output: True

* * *

- target_under_test: Fibroblast growth factor 10 (Homo sapiens)
- assay_notes: FGF10 binders on small-molecule microarrays, primary screen, biochemical, small-molecule microarray, 635 nm fluorescence (AID 1102)
- setup_conditions: FGF10 binding, fluorescence 635 nm, higher = more signal
endpoint_label: composite z-score
Just the number.

Study these solved cases before continuing.
• COC(=O)[C@H](C)NC(=O)[C@@H](C)CO = 0.572
• COC(=O)[C@H](C)NC(=O)CCC1CC(OC(=O)NCc2cccc3ccccc23)CC2(CCCC(COC(=O)NCC3CCCCC3)O2)O1 (some centres undefined) = 1.47
• O=C1[C@H]2[C@H]3[C@H](O)[C@H](O)CC(=NOCc4ccccc4)[C@H]3CC[C@H]2C(=O)N1C[C@@H]1CCCO1 = 0.863

Task: Quick one: composite z-score for CCOC(=O)CCN1C(=O)[C@H]2[C@H]3[C@H](O)[C@H](O)CC(=NNC(=O)OCc4ccc(OC)cc4)[C@@H]3CC[C@H]2C1=O ?
Output: 0.567

* * *

Listing of recorded z-score by entry.
- assay_notes: CREB reporter modulators without forskolin, primary screen, cell-based, PC12, CRE-LacZ reporter, unstimulated (AID 1145)
- setup_conditions: no forskolin, luminescence, 4.5 h, higher = more signal, called active from +8 up or from −8 down
Calls of active or inactive are those of the source.

Study these solved cases before continuing.
- COC(=O)CC1OC1[C@H](C)[C@@H](OC)C(C)C (stereo not given in full): 1.47 (inactive)
- CCOC(=O)CCN1C(=O)[C@H]2[C@H]3[C@H](O)[C@H](O)CC(=NOC[C@@H](O)COCc4ccco4)[C@@H]3CC[C@H]2C1=O: 0.251 (inactive)

Task: Quick one: z-score for CC(C)NC(=O)[C@@]1(C)c2ccccc2C(=O)N(Cc2cc(F)cc(C(F)(F)F)c2)[C@H]1c1ccc(CO)cc1 ?
Output: 0.648 (inactive)

Task: And then C=C(CCCC)C(=O)CC[C@@H](OC(C)=O)c1cccc(OCCO)c1 , what is it?
Output: 9.03 (active)

Task: And then COC(=O)[C@@]1(Cc2ccc(OC)cc2)[C@H]2c3cc(C(=O)N4CCCC4)n(Cc4cc(F)c(F)c(F)c4)c3C[C@H]2CN1C(=O)c1ccccc1 , what is it?
Output: 0.0041 (inactive)

* * *

- assay_notes: COS7 lysate on small-molecule microarray, probe aHis, 635 nm (AID 1123);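 further: z-score combines 667nm fluorescence intensity with signal-to-noise per printed compound spot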
- setup_conditions: COS7 cell lysate, fluorescence, higher = more signal
Label true (1) for high-side composite z-score (at or above 1) and false (0) for low-side composite z-score (below it).

• CCc1cc2c(nc1CC)CCN(CCC(C)=NOC(C)CN1CCCc3nc(C)c(C)cc31)C2 (stereo not drawn) = true (1)
• CCN1C(=O)[C@H]2[C@H]3[C@H](O)[C@H](O)CC(=NOCc4ccccc4)[C@H]3CC[C@H]2C1=O = false (0)
• CO[C@@H]1COC(=O)CC=C[C@@H](C)[C@@H]2C=C[C@@H](O)[C@@H](COC(=O)CC=C[C@H]1C)O2 = false (0)
• O=C1CCCC=C1C(O)CCOCc1ccccc1 (stereo not drawn) = false (0)
• COc1ccccc1CN1C(=O)c2ccccc2[C@@]2(Cc3ccccc3N(C(C)C)C2=O)[C@@H]1c1ccc(CO)cc1 = false (0)
• CO[C@H]1O[C@H](CO)[C@@H](OC(=O)Nc2ccc3c(c2)OCO3)[C@H](OC(=O)Nc2ccccc2-c2ccccc2)[C@@H]1OC(=O)Nc1ccccc1-c1ccccc1 = true (1)
• CC(C)C[C@@H]1NC(=O)[C@H]2C[C@@H](C(=O)NCCCCCCN(C)C)[C@@H](c3cccc(OCCO)c3)N2C1=O = true (1)
• CO[C@@H]1COC(=O)CCC[C@@H](C)[C@H](OC)COC(=O)CCC[C@H]1C = false (0)
• COc1cccc([C@@H]2Oc3ccc(Br)cc3C(=O)[C@H]2O)c1 = false (0)
• Cc1cc2c(nc1C)CCCN2CC(O)CN1CCN(C)CC1 (stereo not drawn) = false (0)

Task: Hi team, for CC(C)[C@H](NC(=O)OC(C)(C)C)[C@@H](O)CC(=O)OC(C)(C)C , is the recorded composite z-score at or above 1?
Output: false (0)

Task: And then CC(CCN1CCc2nc(-c3ccccc3)c(-c3ccccc3)cc2C1)=NO[C@H](C)c1cn([C@@H]2COC[C@H]2O)nn1 , what is it?
Output: false (0)

Task: And then CO[C@@H]1COC(=O)CC=C[C@@H](C)COC(=O)[C@H](COCc2ccccc2)NC(=O)CC=C[C@H]1C , what is it?
Output: false (0)

Task: And then CS(=O)(=O)CCOC(=O)C1=CC(CCCO)=CC(c2cccs2)N(Cc2cccc(OC(F)(F)F)c2)C=C1C(=O)OCCS(C)(=O)=O (stereo not drawn) , what is it?
Output: true (1)

Task: And then CN1C(=O)C2C=CC(C(O)c3ccc(I)cc3)N(NC(=O)OC(C)(C)C)C2C1=O (stereo not drawn) , what is it?
Output: true (1)

Task: And then CCCCc1nc2c(c3c1C[C@H](C)OC3)CN(CCC(C)C)CC2 , what is it?
Output: true (1)

Task: And then O=C1CCCC2OC12C(O)CCc1ccccc1 (stereo not drawn) , what is it?
Output: false (0)

Task: And then O=C1NC(=O)C2C1C=CC(C(O)Cc1ccccc1)N2Nc1ccccn1 (stereo not drawn) , what is it?
Output: true (1)

* * *

- assay_notes: inhibitors of hydroxyurea-induced Chk1 phosphorylation, primary screen, imaging, HeLa, phospho-Chk1 antibody, percent positive cells (AID 1186)
- setup_conditions: hydroxyurea-induced phospho-Chk1 immunofluorescence imaging, higher = more signal
Label 1 for high-side z-score (at or above -0.1) and -1 for low-side z-score (below it).

- Cn1cccc1C(O)C1C=CC2C(=O)NC(=O)C2N1Nc1ccccn1 (centres undefined): 1

Task: Hi team, for COCCCNC(=O)[C@@]1(C)c2ccccc2C(=O)N(Cc2ccc(OC(F)(F)F)cc2)[C@H]1c1ccc(CO)cc1 , is the recorded z-score at or above -0.1?
Output: -1

Task: And then CCCC[C@@H](O)C1=C(C)C[C@H]2C(=O)N(Cc3ccccc3)C(=O)[C@H]2[C@H]1CO , what is it?
Output: 1

Task: And then CO[C@H]1O[C@H](CO)[C@@H](OC(=O)Nc2ccc3c(c2)OCO3)[C@H](OC(=O)Nc2ccccc2-c2ccccc2)[C@@H]1OC(=O)Nc1ccccc1-c1ccccc1 , what is it?
Output: -1

Task: And then O=C1O[C@@H](c2ccccc2)[C@@H](c2ccccc2)N2[C@@H](c3ccccc3OCCO)[C@]3(C(=O)Nc4ccc(C#CCCO)cc43)[C@@H](C(=O)O)[C@H]12 , what is it?
Output: 1

* * *

- assay_notes: COS7 lysate on small-molecule microarray, probe aHis, 635 nm (AID 1123);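 further: z-score combines 667nm fluorescence intensity with signal-to-noise per printed compound spot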
- setup_conditions: COS7 cell lysate, fluorescence, higher = more signal
Could you please classify the records by composite z-score using these ranges: low value: < 0.2; medium value: ≥ 0.2 and < 0.9; high value: ≥ 0.9

- CC(C)NC(=O)[C@@]1(C)c2ccccc2C(=O)N(Cc2cc(F)cc(C(F)(F)F)c2)[C@H]1c1ccc(CO)cc1: high value
- C=CC[C@@H]1C=C[C@H](ON=C[C@@H](OC)[C@H](C)C=CCC(=O)OC)[C@@H](CO)O1: medium value
- COC(=O)CC1OC1[C@H](C)[C@@H](OC)C(C)C (stereo not given in full): low value
- CN1C(=O)C2C=CC(C(O)C(c3ccccc3)c3ccccc3)N(NC(=O)OC(C)(C)C)C2C1=O (stereo not given): high value
- CC1(C)OCC(C(O)C2=CCCCC2=O)CO1 (stereo not given): medium value
- O=C1O[C@@H](c2ccccc2)[C@@H](c2ccccc2)N2[C@@H](c3ccc(OCCO)cc3)[C@]3(C(=O)Nc4ccc(C#CCCO)cc43)[C@@H](C(=O)N3CCCCCCC3)[C@H]12: high value
- CC(C)OC(=O)C=C1C[C@@H](c2ccc(C#N)cc2)O[C@@H](c2ccc(C#N)cc2)O1: high value
- CCOC(=O)C[C@H]1[C@H](OC(=O)c2cc3ccccc3oc2=O)[C@@H](NC(=O)c2ccc3ccccc3n2)c2cc(OCCCO)ccc2N1C(=O)c1ccccc1: medium value
- Cn1c(=O)n2n(c1=O)[C@H]1[C@H](O)[C@@H]3O[C@@H]3C(=NOC[C@@H](O)COCc3ccco3)[C@H]1CC2: low value
- CCOC(=O)NN=C1C[C@@H](O)[C@@H](O)[C@@H]2[C@@H]3C(=O)N(C(C)(C)C)C(=O)[C@@H]3CC[C@@H]12: low value

Task: Class (by measured composite z-score) for CC(C)(C)N1C(=O)[C@H]2[C@H]3[C@H](O)[C@H](O)CC(=NO[C@@H]4O[C@H](CO)[C@@H](O)[C@H](O)[C@H]4O)[C@@H]3CC[C@H]2C1=O
Output: medium value

Task: And then O=C1[C@H]2[C@H]3[C@H](O)[C@H](O)CC(=NOCc4ccccc4)[C@H]3CC[C@H]2C(=O)N1c1ccc(F)cc1F , what is it?
Output: low value

Task: And then COC(=O)[C@@]1(Cc2ccc(F)cc2)[C@@H]2C(=CC(=O)[C@H]2CC(=O)C(=O)N(C)C)CN1C(=O)c1ccccc1 , what is it?
Output: high value

Task: And then COCCCNC(=O)[C@@]1(Sc2ccc(C)cc2)CC(=O)N(Cc2ccccc2)[C@@H]1c1ccc(CO)cc1I , what is it?
Output: high value

Task: And then O=C1[C@H]2[C@H]3[C@H](O)[C@H](O)CC(=NO[C@@H]4O[C@H](CO)[C@@H](O)[C@H](O)[C@H]4O)[C@@H]3CC[C@H]2C(=O)N1Cc1ccccc1 , what is it?
Output: low value

Task: And then CN(C)c1ccc(C(O)C2C=CC3C(=O)N(c4ccccc4)C(=O)C3N2Nc2ccccc2F)cc1 (stereo not given) , what is it?
Output: high value
